FYI, the data here is from patent US11261201B2.

List of MIC values.
# System: E. coli
# Method Summary: Gram negative MIC protocol (OD600, LB, 24 h)
# Test Settings: Escherichia coli, read-out: MIC E. coli delta-TolC LB Media, E. coli delta-TolC, LB media, OD600
Structures can show the parent of a compound that is named as a salt.
Expressed in µM, but write only the number.

Example compounds with recorded MIC:
# Compound, Unit Symbol, MIC
data = [
    ("C[C@H](NCc1ccccc1)C12CC3CC(CC(C3)C1)C2", "µM", 96),
    ("COc1cccc(COc2ccccc2CNC(C)CC2CCCCC2)c1 (centres unmarked)", "µM", 2),
    ("C1=CCC(CCNCc2ccccc2)CC1 (centres unmarked) [B156, hydrochloride]", "µM", 150),
]

Pending compound:
The recorded MIC for O=C1NCC(COc2ccccc2CNCCC2=CCCCC2)O1 (centres unmarked) is 33

====

# Test system: E. coli
# Method Summary: Gram negative MIC protocol (OD600, LB, 24 h)
# Test Settings: Escherichia coli, read-out: MIC WT E. coli LB Media, wild-type E. coli, LB media, 24 h, OD600
Where a name gives a salt, the structure may show the parent alone.
Measured Parameter: MIC (µM)
Expressed in µM, but write only the number.

The recorded MIC for CCOc1ccccc1CNC(C)CC1CCCCC1 (stereo not drawn) is 150

The recorded MIC for CC(CC1CCCCC1)NCc1ccccc1OCCO (stereo not drawn) is 55

The recorded MIC for c1csc(-c2ccccc2CNCCC2CCCCC2)c1 [B230, hydrochloride] is 96

The recorded MIC for CC(CC1CCCCC1)NCc1ccccc1OCc1cccc(F)c1 (stereo not drawn) is 55

The recorded MIC for OB(O)Cc1ccccc1CNCCC1CCCCC1 is 150

The recorded MIC for CC(CC1CCCCC1)NCc1ccccc1OC1CC2CCC1C2 (stereo not drawn) is 150

The recorded MIC for Cc1cc(COc2ccccc2CNC(C)CC2CCCCC2)on1 (stereo not drawn) is 150

The recorded MIC for CC(CC1CCCCC1)NCc1ccccc1OCCCS(C)(=O)=O (stereo not drawn) is 150

The recorded MIC for CC(CC1CCCCC1)NCc1ccccc1OC1CCC(F)(F)CC1 (stereo not drawn) is 150

The recorded MIC for CC(CC1CCCCC1)NCc1ccccc1OCC(=O)NC(N)=O (stereo not drawn) is 55

The recorded MIC for Nc1ccccc1CNCCC1CCCCC1 [B235, hydrochloride] is 96

The recorded MIC for c1ccc(C2CC2)c(CNCCC2CCCCC2)c1 [B233, hydrochloride] is 300

====

# Tested on: E. coli
# Method Summary: Gram negative MIC protocol (OD600, LB, 24 h)
# Test Settings: Escherichia coli, read-out: MIC E. coli delta-TolC LB Media, E. coli delta-TolC, LB media, OD600
Measured Parameter: MIC

Example molecules with recorded MIC:
# Molecule, Measured Parameter, Value Reported
data = [
    ("c1ccc(CNCC2CCCCC2)cc1", "MIC", "> 150 µM"),
    ("CC(CC1CCCCC1)NCc1ccccc1CS(N)(=O)=O (stereo not drawn)", "MIC", "4 µM"),
    ("OC[C@H](Cc1ccccc1)NCc1ccccc1", "MIC", "> 300 µM"),
    ("CC1CC1C(C)NCc1ccccc1 (stereo not drawn)", "MIC", "> 150 µM"),
    ("Fc1ccc(CC2(NCc3ccccc3)CC2)cc1", "MIC", "> 150 µM"),
    ("CC(Cc1cnn(C)c1)NCc1ccccc1 (stereo not drawn)", "MIC", "> 150 µM"),
]

The recorded MIC for CC(C)(CNCc1ccccc1)C1=CCCCC1 is > 150 µM

The recorded MIC for CC1(C)[C@@H]2C[C@](C)(CNCc3ccccc3)C[C@@H]21 is > 150 µM

The recorded MIC for CC(CC1CCCCC1)NCc1ccccc1Oc1ccccc1F (stereo not drawn) is 5 µM

The recorded MIC for c1ccc(CNCCC2CCOC2)cc1 (stereo not drawn) is > 150 µM

The recorded MIC for O=C1Cc2ccccc2CN1CCC1CCSCC1 is > 150 µM

The recorded MIC for c1ccc(CNCC2Cc3ccccc32)cc1 (stereo not drawn) is > 150 µM

====

List of MIC values.
# Test system: E. coli
# Method Summary: Gram negative MIC protocol (OD600, LB, 24 h)
# Test Settings: Escherichia coli, read-out: MIC WT E. coli LB Media, wild-type E. coli, LB media, 24 h, OD600
Expressed in µM, but write only the number.

The recorded MIC for CC(CC1CCCCC1)NCc1ccccc1OCc1ccncc1 (centres unmarked) is 91

The recorded MIC for CC(CC1CCCCC1)NCc1ccccc1OCCCN(C)C1CCCC1 (centres unmarked) is 150

The recorded MIC for CC(CC1CCCCC1)NCc1ccccc1OCC(N)=O (centres unmarked) is 91

The recorded MIC for CC(CC1CCCCC1)NCc1ccccc1OCC1CNC(=O)O1 (centres unmarked) is 75

====

# Tested on: E. coli
# Method Summary: Gram negative MIC protocol (OD600, LB, 24 h)
# Test Settings: Escherichia coli, read-out: MIC E. coli delta-TolC LB Media, E. coli delta-TolC, LB media, OD600
Structures can show the parent of a compound that is named as a salt.
Measured Parameter: MIC

# Compound, Measured On, Measured Parameter, Value Reported
records = [
    ("CC(C)CCNCc1ccccc1 [B2]", "E. coli", "MIC", "> 150 µM"),
    ("c1ccc(CNCC2CC3CCC2C3)cc1 (stereo not drawn) [B43]", "E. coli", "MIC", "> 150 µM"),
    ("CC(C)(CC1CCCCCC1)NCc1ccccc1 [B92]", "E. coli", "MIC", "> 150 µM"),
    ("Brc1ccc(CC2(NCc3ccccc3)CC2)cc1 [B91]", "E. coli", "MIC", "90 µM"),
    ("CC(CC1CCCCC1)NCc1ccccc1CCC(=O)O (stereo not drawn) [B401, trifluoroacetate]", "E. coli", "MIC", "33 µM"),
]

Pending compound:
The recorded MIC for Cc1ccc2ncc(CCNCc3ccccc3)cc2c1 [B117] is > 150 µM

====

# Test system: E. coli
# Method Summary: Gram negative MIC protocol (OD600, LB, 24 h)
# Test Settings: Escherichia coli, read-out: MIC WT E. coli LB Media, wild-type E. coli, LB media, 24 h, OD600
List of MIC values.

# Compound, Measured Parameter, Value Reported
data = [
    ("C#CCNC(=O)COc1ccccc1CNC(C)CC1CCCCC1 (stereo not drawn) [B359]", "MIC", "> 150 µM"),
    ("CC(CC1CCCCC1)NCc1ccccc1OC(F)(F)F (stereo not drawn) [B321]", "MIC", "> 150 µM"),
    ("CC(CC1CCCCC1)NCc1ccccc1OCC(=O)NC1CC1 (stereo not drawn) [B280]", "MIC", "150 µM"),
    ("OB1OCc2cccc(CNCCC3CCCCC3)c21 [B339]", "MIC", "> 300 µM"),
    ("CC(O)CCOc1ccccc1CNC(C)CC1CCCCC1 (stereo not drawn) [B363]", "MIC", "150 µM"),
]

Pending compound:
The recorded MIC for COC(=O)c1ccc(COc2ccccc2CNC(C)CC2CCCCC2)o1 (stereo not drawn) [B252] is > 150 µM

====

# Tested on: E. coli
# Method Summary: Gram negative MIC protocol (OD600, LB, 24 h)
# Test Settings: WT E. coli, LB media, OD600
Measured Parameter: MIC WT E. coli LB Media

# Compound, MIC WT E. coli LB Media
measured = [
    ("C1=C(CCNCc2ccncc2)CCCC1", ">150 µM"),
    ("CC(Cc1ccc2ccccc2c1)NCc1ccccc1 (stereo not shown)", ">300 µM"),
    ("Cl.c1ccc(CNCC2CCCCC2)cc1", ">150 µM"),
]

Pending compound:
With E. coli as the test system, OC(CNCc1ccccc1)c1cccc2ccccc12 (stereo not shown) showed MIC WT E. coli LB Media of >150 µM

====

List of MIC values.
# Tested on: E. coli
# Method Summary: Gram negative MIC protocol (OD600, LB, 24 h)
# Test Settings: Escherichia coli, read-out: MIC WT E. coli LB Media, wild-type E. coli, LB media, 24 h, OD600
Expressed in µM, but write only the number.

Example molecules with recorded MIC:
# Molecule, MIC (µM)
data = [
    ("Nc1cccc(CNCCC2CCCCC2)c1 [B366]", 150),
    ("COc1ccc(OCCCOc2ccccc2CNC(C)CC2CCCCC2)cc1 (stereo not drawn) [B271]", 150),
]

The recorded MIC for CC1CCC(CCNCc2ccccc2)CC1 (stereo not drawn) [B221] is 300
